System: Candida dubliniensis
Assay: Antifungal activity against Candida dubliniensis assessed as growth inhibition at 250 ug/mL after 24 hrs by hole plate diffusion method
Assay type: functional
Conditions: read-out: IZ
Kind request: treat 10 mm as inclusive, so zone of inhibition at 250 µg/mL at 10 mm or higher is Yes, anything lower is No.

>  <COMPOUND>
O=C1C(=O)c2ccccc2C2=C1CC(c1ccc(F)cc1)O2 (stereo unspecified)

>  <DISCRETE_LABEL>
No

$$$$
>  <COMPOUND>
CCC(C)n1ncn(-c2ccc(N3CCN(c4ccc(OCC5COC(Cn6cncn6)(c6ccc(Cl)cc6Cl)O5)cc4)CC3)cc2)c1=O (stereo unspecified)

>  <DISCRETE_LABEL>
Yes

$$$$
>  <COMPOUND>
O=C1C2=C(OC(c3ccc(Cl)cc3)C2)C(=O)c2ccccc21 (stereo unspecified)

>  <DISCRETE_LABEL>
No

$$$$
>  <COMPOUND>
O=C1C(=O)c2ccccc2C2=C1CC1(C=CC=C1)O2

>  <DISCRETE_LABEL>
Yes

$$$$
>  <COMPOUND>
CC1(c2ccccc2)CC2=C(O1)c1ccccc1C(=O)C2=O (stereo unspecified)

>  <DISCRETE_LABEL>
Yes

$$$$
>  <COMPOUND>
O=C1C2=C(OC(c3ccc(F)cc3)C2)C(=O)c2ccccc21 (stereo unspecified)

>  <DISCRETE_LABEL>
No

$$$$

Exercise: I'd appreciate it if you could say whether CC1(c2ccccc2)CC2=C(O1)C(=O)c1ccccc1C2=O (stereo unspecified) has zone of inhibition at 250 µg/mL at least equal to 10 mm.
Solution: No

Exercise: I'd appreciate it if you could say whether O=C1C2=C(OC(c3ccccc3)C2)C(=O)c2ccccc21 (stereo unspecified) has zone of inhibition at 250 µg/mL at least equal to 10 mm.
Solution: No

Exercise: I'd appreciate it if you could say whether `O=C1C2=C(OC3(C=CC=C3)C2)C(=O)c2ccccc21` has zone of inhibition at 250 µg/mL at least equal to 10 mm.
Solution: Yes

Exercise: I'd appreciate it if you could say whether O=C1C(=O)c2ccccc2C2=C1CC(c1ccc(Br)cc1)O2 (stereo unspecified) has zone of inhibition at 250 µg/mL at least equal to 10 mm.
Solution: No

Exercise: I'd appreciate it if you could say whether O=C1C(=O)c2ccccc2C2=C1CC(c1ccccc1)O2 (stereo unspecified) has zone of inhibition at 250 µg/mL at least equal to 10 mm.
Solution: Yes

---

Please respond with reported zone of inhibition at 250 µg/mL for every item in the list.
System: Candida dubliniensis
Assay: Antifungal activity against Candida dubliniensis assessed as growth inhibition at 250 ug/mL after 24 hrs by hole plate diffusion method
Format: functional
Conditions: read-out: IZ
Numbers only, in mm.

>  <MOLECULE>
OC(Cn1cncn1)(Cn1cncn1)c1ccc(F)cc1F

>  <MEASURED_RESULT>
12.8

$$$$
>  <MOLECULE>
Cc1ccc(C2CC3=C(O2)C(=O)c2ccccc2C3=O)c(C)c1 (centres undefined)

>  <MEASURED_RESULT>
2.02

$$$$
>  <MOLECULE>
Cc1ccc(C2CC3=C(O2)C(=O)c2ccccc2C3=O)cc1 (centres undefined)

>  <MEASURED_RESULT>
2.75

$$$$

Quick batch: zone of inhibition at 250 µg/mL for everything below.
1. CC1(C)CC2=C(O1)c1ccccc1C(=O)C2=O
2. O=C1C2=C(OC(c3ccc(Br)cc3)C2)C(=O)c2ccccc21 (centres undefined)
3. Cc1ccc(C2CC3=C(O2)c2ccccc2C(=O)C3=O)c(C)c1 (centres undefined)

Solution:
1. 0.1
2. 0.49
3. 4.19

Quick batch: zone of inhibition at 250 µg/mL for everything below.
1. CC1(C)CC2=C(O1)C(=O)c1ccccc1C2=O
2. Cc1ccc(C2CC3=C(O2)c2ccccc2C(=O)C3=O)cc1 (centres undefined)
3. O=C1C(=O)c2ccccc2C2=C1CC(c1ccc(Cl)cc1)O2 (centres undefined)

Solution:
15.2
6.44
9.01
